The measurements presented in this section are drawn from PubChem BioAssay AID1445.

biological target: Aminopeptidase N (Plasmodium falciparum (isolate 3D7)) (UniProt O96935); assay: malaria alanyl aminopeptidase activity blockers – biochemical, fluorogenic H-Leu-NHMec substrate, 1536-well (AID 1445); conditions: recombinant M1AAP, H-Leu-NHMec fluorogenic kinetic assay; at 30 µM, active compounds read high unless noted;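 also: plate controls were DMSO full reaction for no effect and no enzyme background for full effect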
Sequence (O96935 whole entry, looked up): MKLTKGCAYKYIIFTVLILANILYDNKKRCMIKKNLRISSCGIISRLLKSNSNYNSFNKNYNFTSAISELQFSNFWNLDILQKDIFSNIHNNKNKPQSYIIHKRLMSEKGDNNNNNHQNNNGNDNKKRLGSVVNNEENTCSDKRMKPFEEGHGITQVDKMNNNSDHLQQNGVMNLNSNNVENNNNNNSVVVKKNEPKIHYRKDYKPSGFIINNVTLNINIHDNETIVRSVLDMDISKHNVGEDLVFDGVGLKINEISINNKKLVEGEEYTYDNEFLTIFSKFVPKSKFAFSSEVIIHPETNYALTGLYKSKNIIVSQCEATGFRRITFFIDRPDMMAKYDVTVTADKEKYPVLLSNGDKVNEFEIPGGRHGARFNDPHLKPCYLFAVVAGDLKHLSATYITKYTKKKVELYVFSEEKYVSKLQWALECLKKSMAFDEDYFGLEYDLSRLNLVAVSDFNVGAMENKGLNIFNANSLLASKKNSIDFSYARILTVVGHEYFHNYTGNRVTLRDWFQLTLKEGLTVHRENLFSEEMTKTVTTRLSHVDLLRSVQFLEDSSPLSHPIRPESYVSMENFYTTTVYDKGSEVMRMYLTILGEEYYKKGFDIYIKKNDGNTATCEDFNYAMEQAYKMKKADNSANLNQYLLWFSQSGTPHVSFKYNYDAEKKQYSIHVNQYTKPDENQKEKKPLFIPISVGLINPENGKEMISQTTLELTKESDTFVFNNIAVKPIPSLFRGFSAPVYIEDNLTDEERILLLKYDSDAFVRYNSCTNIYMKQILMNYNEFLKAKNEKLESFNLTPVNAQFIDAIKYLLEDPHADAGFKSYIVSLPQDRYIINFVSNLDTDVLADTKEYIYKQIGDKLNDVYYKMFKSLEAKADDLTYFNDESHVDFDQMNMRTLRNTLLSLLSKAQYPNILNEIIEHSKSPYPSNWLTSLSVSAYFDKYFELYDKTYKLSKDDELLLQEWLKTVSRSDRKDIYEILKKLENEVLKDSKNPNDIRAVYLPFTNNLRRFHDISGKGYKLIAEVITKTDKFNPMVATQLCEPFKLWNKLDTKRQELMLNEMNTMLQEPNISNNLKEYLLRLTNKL
Among all 220,000 compounds or so, about 910 (0.41%) were called active. The entries come from a sample that favours actives as a whole. Results with a measured potency or affinity are listed apart.
Parameter: inhibition. Scope: all listed entries.
Answer with a number only, understood to be in %.

The following compounds have reported results that may help.
>  <compound>
CC1(C)CC(=O)C(/C=N/n2c(C(F)(F)F)nc3ccccc3c2=O)=C(O)C1

>  <inhibition [%]>
27.5

$$$$
>  <compound>
CC1(C)CC(=O)C(C=Nc2ccccc2)=C(O)C1

>  <inhibition [%]>
2.69

$$$$
>  <compound>
O=C(O)CSc1nc(-c2cccs2)cc(C(F)(F)F)n1

>  <inhibition [%]>
-2.67

$$$$
>  <compound>
CC1(C)CC(=O)C(/C=N/n2cnc3ccccc3c2=O)=C(O)C1

>  <inhibition [%]>
11.3

$$$$
>  <compound>
O=C(Cn1nc(Cl)nc1Cl)Nc1ccccc1

>  <inhibition [%]>
0.91

$$$$

Respond only with inhibition recorded for `COc1ccc(Cl)cc1NC(=S)N1CCN(S(C)(=O)=O)CC1` 5.32

* * *

target: Aminopeptidase N (Plasmodium falciparum (isolate 3D7)); assay: malaria alanyl aminopeptidase activity blockers – biochemical, fluorogenic H-Leu-NHMec substrate, 1536-well (AID 1445); settings: recombinant M1AAP, H-Leu-NHMec fluorogenic kinetic assay; at 30 µM, active compounds read high unless noted;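 also: plate controls were DMSO full reaction for no effect and no enzyme background for full effect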
Out of some 220,000 compounds screened, about 910 (0.41%) were called active. What follows is part of a selection rich in actives, with near analogues and random picks from the rest. Results with a measured potency or affinity are listed apart.
parameter-measured: inhibition (%)
Answer with a number only, understood to be in %.

>  <molecule>
Cc1cc(C)n(-c2ccc(C(=O)OCC(=O)c3c(N)n(C)c(=O)n(C)c3=O)cc2)n1

>  <units-of-measure>
%

>  <inhibition>
4.93

$$$$
>  <molecule>
COc1ccc(-c2cc(=O)c3c(O)c(OC)c(O)cc3o2)cc1

>  <units-of-measure>
%

>  <inhibition>
17

$$$$
>  <molecule>
COc1ccc(-c2nc(CSCC(=O)N3CCN(c4cccc(C)c4)C(C)C3)c(C)o2)cc1OC (stereo not given)

>  <units-of-measure>
%

>  <inhibition>
23.8

$$$$

Respond only with inhibition recorded for CC(=O)Nc1cc(C(=O)OC(C(=O)c2ccccc2)c2ccccc2)ccc1C (stereo not given) 2.38

* * *

target: Aminopeptidase N (Plasmodium falciparum (isolate 3D7)) (UniProt O96935); assay: malaria alanyl aminopeptidase activity blockers – biochemical, fluorogenic H-Leu-NHMec substrate, 1536-well (AID 1445); settings: recombinant M1AAP, H-Leu-NHMec fluorogenic kinetic assay; at 30 µM;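 also: plate controls were DMSO full reaction for no effect and no enzyme background for full effect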
The campaign covered roughly 220,000 compounds. About 910 (0.41%) were called active.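 Rule for the calls: active = primary inhibition above the hit cutoff, then over 50% inhibition at one or more dose response concentrations (cut at about 23% in these data, passing the limit was not always enough); inconclusive = conflicting primary data, or primary hits not chosen for dose response; inactive = low primary inhibition, or under 50% at every dose.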 For the sample, actives were picked, then their nearest neighbours and some compounds at random. Measured potencies and affinities stand elsewhere.
Pick one: active, inactive

Worked examples follow.
>  <compound>
CC1(NC(=S)NCCO)CCS(=O)(=O)C1 (stereo unspecified)

>  <class>
inactive

$$$$
>  <compound>
O=C(O)c1ccccc1N/N=C/c1cc(Br)cc(Br)c1O

>  <class>
inactive

$$$$

Test call, this compound: `CC(C)=CC(=O)NCCc1ccccc1` inactive

Test call, this compound: CCOc1ccc(CCNC(=O)C2CCCN(c3nn4c(=O)cc(C)nc4s3)C2)cc1 (stereo unspecified) inactive

Test call, this compound: COc1cccc(/C=N/NC(=O)CN2CC(c3ccccc3)CC2=O)c1O (stereo unspecified) inactive
